# assay.method.text: In vivo pharmacokinetics of lisinopril, pump versus subcutaneous injection
# measurement.setup: plasma, other: implanted pump; Pump-lisinopril group; read-out: maximum plasma concentration (Cmax)
observable: Cmax (ng/mL)
I only need the number, in ng/mL, no unit after it.

Asked: Return reported Cmax; argument: NCCCC[C@H](N[C@@H](CCc1ccccc1)C(=O)O)C(=O)N1CCC[C@H]1C(=O)O
Given back: 394

* * *

# assay.method.text: In vivo pharmacokinetics of lisinopril, pump versus subcutaneous injection
# measurement.setup: plasma, sc; Inj-lisinopril group (subcutaneous injection); read-out: maximum plasma concentration (Cmax)
observable: Cmax (ng/mL)
Write down the numeric answer in ng/mL and omit the unit.

Asked: # Cmax lookup, item NCCCC[C@H](N[C@@H](CCc1ccccc1)C(=O)O)C(=O)N1CCC[C@H]1C(=O)O [lisinopril]
Given back: 323
